tested on: LPS-induced production of TNF-α, IL-1β and IL-6; assay: LPS-induced cytokine production in various in vitro systems and animal models; assay type: cell-based; conditions: read-out: IC50, LPS-induced production of TNF-α
pIC50: −log10 of the molar value.
result type: pIC50

Prompt: Kindly state the measured pIC50 obtained for Cc1cnc(-c2ccnc(C(C)(C)O)n2)cc1-n1c(C)cc(OCc2ncc(F)cc2F)c(Cl)c1=O with LPS-induced production of TNF-α, IL-1β and IL-6.
Response: 8.00 to 9.00

Data origin, for the record: paper PMC5940269
